- measurementProtocol: Complex formation constant from fluorescence intensity change on addition of sodium
- Type: binding
- experimentalSetup: 0.2 M Tris-perchlorate buffer pH 7.5, sodium perchlorate, DMF 0.1%, compound 3 μM; read-out: Complex formation constant Na^+
- Experimental: Fluorescence intensity changes of the compound obtained in Example 5 and the compound obtained in Example 7 above were measured with addition of sodium, magnesium, and potassium. […] The compound obtained in Example 5 was measured at excitation wavelength of 492 nm and fluorescence wavelength of 513 nm and the compound obtained in Example 7 was measured at excitation wavelength of 504 nm and fluorescence wavelength of […].
pKd: −log10 of the molar value.

| molecule | pKd |
| --- | --- |
| Cc1cc2c(cc1-c1c3cc(Cl)c(=O)cc-3oc3cc(O)c(Cl)cc13)OCCOCCOCCOCCO2 [Example 7] | 3.49 |

----------
- measurementProtocol: Complex formation constant from fluorescence intensity change on addition of potassium
- Type: binding
- experimentalSetup: 0.2 M Tris-hydrochloride buffer pH 7.5, potassium chloride, DMF 0.1%, compound 3 μM; read-out: Complex formation constant K^+

| mol | Kd, µM |
| --- | --- |
| Cc1cc2c(cc1-c1c3cc(Cl)c(=O)cc-3oc3cc(O)c(Cl)cc13)OCCOCCOCCOCCO2 | 410 |
